Origin of values: PubChem BioAssay AID588405

experiment: inhibition of PEG-3 promoter activity – cell-based, HeLa, luciferase luminescence, primary screen (AID 588405); details: HeLa PEG-Prom luciferase reporter, overnight, at 20 µM, stronger effect = higher value
The campaign covered roughly 360,000 compounds. About 6,200 (1.7%) were called active. The full list was thinned out, with actives kept by preference.
Reported inhibition values for a set of molecules

Use the examples below as a reference point.
1) O=C1NC(c2ccccc2)=NC1(Nc1ccccn1)C(F)(F)F (stereo not given)	-4.5% (inactive)
2) Nc1cc(=O)c2[nH]cnc2[nH]1	-0.63% (inactive)
3) COc1ccc(C(=O)N2CCCCC2c2cc(C(=O)Nc3ccccc3)no2)cc1 (stereo not given)	1.75% (inactive)

q: inhibition lookup needed for CCCCSc1[nH]c(=O)c(C(=O)OCC)cc1C#N , thanks.
a: 3.02% (inactive)

q: Then this molecule: CN(C)CCNC(=O)c1cccc(-c2cnc3c(NC=O)cc(-c4cccc(C(F)(F)F)c4)cn23)c1
a: 98.7% (active)

q: Continue with O=C1c2ccccc2C2=Nc3ccccc3SC(c3ccccc3F)C12 (stereo not given)
a: 50.8% (active)

q: // same read-out, input: CC(=O)c1cccc(-c2cnc3c(NC=O)cc(-c4cccc(C(=O)N(C)C)c4)cn23)c1
a: 33.8% (inactive)

q: Now try CSC1=NCCN1C(=O)c1ccc(S(=O)(=O)N2CCOCC2)cc1 .
a: -13.6% (inactive)

q: Also NC(=O)CC[C@@H]1NC(=O)[C@H](CO)NC(=O)c2cc([N+](=O)[O-])cc(I)c2NCC[C@@H](C(N)=O)NC1=O , if possible.
a: 4.02% (inactive)

* * *

Measured inhibition, listed per entry for reference.
assay: inhibition of PEG-3 promoter activity – cell-based, HeLa, luciferase luminescence, primary screen (AID 588405); settings: HeLa PEG-Prom luciferase reporter, overnight, at 20 µM, stronger effect = higher value
The whole screen tested about 360,000 compounds, of which about 6,200 (1.7%) were called active. The entries come from a sample that favours actives as a whole.
Hi! Could you send only the number? It should be in %, unit omitted.

1. CSc1ccc(C(=O)C2CCCN(C(=O)c3ccc(C)nc3)C2)cc1 (stereo not given)	1.04
2. O=C(Nc1ccccc1)c1nnsc1S(=O)(=O)c1ccc(Cl)cc1	67.4
3. O=c1[nH]nc(SCCS(=O)(=O)c2ccc(F)cc2)n1-c1ccccc1C(F)(F)F	-139
4. Cc1ccc2cc(/C=N/Nc3ccc(C(=O)O)cc3)c(Cl)nc2c1	-255
5. CCN(CC)S(=O)(=O)c1ccc(NC(=O)c2cnc(C)cn2)cc1	-6.33

q: What value of measured inhibition is listed for CCn1cc(CN2CCC(C(=O)Nc3cccc(-c4cccc(Cl)c4)c3)CC2)c(C)n1 ?
a: 105

q: Now the compound N#Cc1cccc(NC(=O)c2cc(C3CCCCN3C(=O)CCc3ccccc3)on2)c1 (stereo not given)
a: 23.6

* * *

test: inhibition of PEG-3 promoter activity – cell-based, HeLa, luciferase luminescence, primary screen (AID 588405); conditions: HeLa PEG-Prom luciferase reporter, overnight, at 20 µM, stronger effect = higher value
About 6,200 (1.7%) of roughly 360,000 compounds were called active. This excerpt belongs to a sample that is enriched for actives.
measured.endpoint: inhibition (%)
# output: bare number, implied unit %

Known results for compounds:
1. CC(C)OC(=O)c1ccc(NCc2cc(O)ccc2O)cc1Cl	64
2. COc1ccc(NC(=O)c2sc(=O)n(Cc3ccc(S(=O)(=O)N(C)C)cc3)c2C)cc1	2.16
3. Cc1ccc(C)c(N2CCN(C(=O)CCCn3c(=O)c4cccn4c4cccnc43)CC2)c1	34.6

Next item in the queue.
q: Need inhibition of O=C(CCCCCn1c(=S)[nH]c2cc3c(cc2c1=O)OCO3)N1CCN(c2ccc(F)cc2)CC1 , thanks.
a: -0.75

* * *

assay: inhibition of PEG-3 promoter activity – cell-based, HeLa, luciferase luminescence, primary screen (AID 588405); conditions: HeLa PEG-Prom luciferase reporter, overnight, at 20 µM, stronger effect = higher value
The campaign covered roughly 360,000 compounds. About 6,200 (1.7%) were called active. The full list was thinned out, with actives kept by preference.
measured.endpoint: inhibition (%)
Response body: numeric value in %, unit text excluded.

// solved cases for inhibition follow
1) Nc1nonc1-n1nnc(C(=O)N/N=C\c2ccncc2)c1CN1CCCCC1	23.4
2) CN(CC1CCCO1)S(=O)(=O)c1ccc(C(=O)Nc2ccc(F)cc2)cc1 (stereo unspecified)	21.5
3) CCOc1cc(NS(=O)(=O)c2ccc(OC)cc2)c(OCC)cc1NC(C)=O	11.6
4) CCc1nc2c(OCc3ccc(C(F)(F)F)cc3)cccn2c1N(C)C(=O)CC(C)C	15.7
5) COC(=O)c1ccc2nc(-c3ccc(Cl)cc3)c(Cc3cccc(F)c3)n2c1	-38.1
6) Cc1cc(Br)ccc1NC(=O)CCCOc1cc(=O)n(C)c2ccccc12	-16.6

q: Give the measured inhibition of CCOP(=O)(OCC)C(Cc1ccccc1)N=C(c1ccccc1)c1ccccc1 (stereo unspecified) .
a: 41.3

q: Now the same for O=[N+]([O-])/C=C/c1ccc2c(ccn2Cc2ccccc2)c1
a: 107

q: Also COc1cccc(-c2ccc3c(c2)N(Cc2ccccc2OC)C(=O)C(C)S3)c1 (stereo unspecified) , if possible.
a: -0.98

q: For CCCCNc1c(-c2ccc(OC)c(Sc3ccc(OC)cc3)c2)nc2ccc(Cl)cn12 then?
a: -44

q: COc1ccc(-c2cc(NC=O)c3ncc(-c4ccccc4)n3c2)cc1OC ?
a: 49.4

q: Consider next the molecule COc1cccc(NC(=O)C2(C)CCN2Cc2ccccc2Cl)c1 (stereo unspecified) in the same way.
a: 12.9

* * *

assay: inhibition of PEG-3 promoter activity – cell-based, HeLa, luciferase luminescence, primary screen (AID 588405); conditions: HeLa PEG-Prom luciferase reporter, overnight, at 20 µM
Screen size: about 360,000 compounds; about 6,200 (1.7%) were called active.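 Rule for the calls: active = inhibition of at least 50% at 20 µM; inactive = the rest.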 The list comes from a sample in which actives are over-represented; it also holds close analogues and randomly drawn compounds.
Can you answer with just one of these options? yes (1) (active), no (0) (inactive)

Completed entries (count: 3):
1) COc1ccc(OC)c(Cc2nnc(CCC(=O)NC3CCCC3)o2)c1	no (0)
2) CC(=O)Nc1cccc(-c2cc3nc(NCc4cccnc4)n(C)c(=O)c3s2)c1	no (0)
3) CCC(=O)c1ccc(OC(=O)/C=C/c2cc(OC)c(OC)c(OC)c2)cc1	no (0)

q: Dear all, I need the recorded test outcome for COc1ccc(S(=O)(=O)N2CCCCC2c2cc(C(=O)NCc3ccc(F)cc3)no2)cc1 (stereo unspecified) , thank you.
a: no (0)

q: Same question, CCCNC(=O)C1(C)CCCN(C(=O)c2oc3ccccc3c2C)C1 (stereo unspecified) this time
a: no (0)

q: Moving on to OCCCNc1nccc(-c2cc(Nc3cccc(Cl)c3)ncn2)n1
a: yes (1)

* * *

assay: inhibition of PEG-3 promoter activity – cell-based, HeLa, luciferase luminescence, primary screen (AID 588405); conditions: HeLa PEG-Prom luciferase reporter, overnight, at 20 µM
The whole screen tested about 360,000 compounds, of which about 6,200 (1.7%) were called active.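 Rule for the calls: active = inhibition of at least 50% at 20 µM; inactive = the rest.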 Shown is part of a subset that was picked to be rich in actives.
API: response.call in 1 = active, 0 = inactive

1. O=CNc1cc(-c2ccc(C(=O)N3CCOCC3)cc2)cn2c(-c3ccc(F)cc3)cnc12	0

q: Hi, do you know how O=C(Nc1nnc(-c2ccc(F)cc2)s1)c1c(F)cccc1Cl came out in this test?
a: 0

q: // query: Cc1cc(Br)cn2c(Cc3ccsc3)c(-c3ccc(C#N)cc3)nc12
a: 0

q: Queued: O=C1c2ccccc2C(c2nc3ccccc3[nH]2)N1c1ccccc1 (stereo not given)
a: 0

q: Proceed to CSc1nnc(NC(=O)c2nc(S(=O)(=O)Cc3ccc(C)cc3)ncc2Cl)s1
a: 1

* * *

experiment: inhibition of PEG-3 promoter activity – cell-based, HeLa, luciferase luminescence, primary screen (AID 588405); conditions: HeLa PEG-Prom luciferase reporter, overnight, at 20 µM, stronger effect = higher value
The whole screen tested about 360,000 compounds, of which about 6,200 (1.7%) were called active. The sample as a whole holds a higher share of actives than the screen did.
# inhibition per entry

q: Can you share its inhibition? I mean this molecule: Cc1nc(C(F)(F)F)ccc1C(=O)N1CCC1(C)C(=O)NS(=O)(=O)c1ccccc1 (stereo not given)
a: 11.6% (inactive)

q: Also COc1ccc(C(CC(=O)Nc2ccc(C)cc2)NC(=O)C(F)(F)F)cc1 (stereo not given) ?
a: 3.66% (inactive)

q: Here is the next molecule: Cc1ccc(NC(=S)N(CCCN2CCCC2)Cc2cccn2Cc2ccc(Cl)cc2)cc1
a: 83.4% (active)

q: Also O=C(Nc1ccc(C(=O)N2CCOCC2)cc1)Nc1cccc(C(F)(F)F)c1 ?
a: 2.67% (inactive)
